// counts minus background (counts per 20 min) lookup, one value per entry
target: HIV-1LAI envelope gp120 labeled with radioactive iodine (HIV-1 LAI), P03377; assay: 125I-gp120, peptide array

FQTLKIVILGLVLPLLVM (modifications not checked) [CCR5 193-210] :: 45
IVLLLNTFQEFFGLNNCS (modifications not checked) [CCR5 253-270] :: 2130
FKTSAQHALTSVSRGSSL (modifications not checked) [CXCR4 309-326] :: 173

Here is the next item to consider.
Need counts minus background (counts per 20 min), item IIISKLSHSKGHQKRKAL (modifications not checked) [CXCR4 221-238]
157
